System: histone deacetylase enzyme in nuclear extracts from H446 cells (pooled HDACs)
ASSAY: Histone deacetylase inhibition, H446 nuclear extracts (pooled HDACs)
Type: biochemical, human
REPORTED_CONDITIONS: H446 nuclear extract, [3H]-acetylated histone substrate
OBSERVABLE: log10 of IC50 (log10 of the value in nM)
All values: log10 IC50 [nM].

{"columns": ["COMPOUND", "TARGET_OF_ASSAY", "log10 of IC50"],
 "data": [
  ["O=C(CCCCCCC(=O)c1cccs1)NO [Compound 52k]", "histone deacetylase enzyme in nuclear extracts from H446 cells (pooled HDACs)", 2.95],
  ["O=C(CCCCCCC(=O)c1cc2ccccc2o1)NO [Compound 52l]", "histone deacetylase enzyme in nuclear extracts from H446 cells (pooled HDACs)", 2.48],
  ["O=C(CS)CCCCCCC(=O)c1cc2ccccc2s1", "histone deacetylase enzyme in nuclear extracts from H446 cells (pooled HDACs)", 1.60]
]}

Provide value of log10 of IC50 for this record tested with histone deacetylase enzyme in nuclear extracts from H446 cells (pooled HDACs): COc1ccc(C(=O)C(C)(C)CCCCC(=O)NO)cc1 3.48

Provide value of log10 of IC50 for this record tested with histone deacetylase enzyme in nuclear extracts from H446 cells (pooled HDACs): COC(C/C=C/C=C/C(=O)NO)c1ccc(N(C)C)cc1 (stereo not shown) 3.60

Hello, the source for this data is patent US7288567B2, in case you need it.
